test: Protein binding in rat plasma; format: ADME, cell-free; conditions: read-out: PPB (converted)
Readout: fraction unbound
Answers are plain numbers.

Prompt line: Any idea what fraction unbound was measured for `COc1cc(/C=C2\CCCN3C2=NO[C@H](c2cc(F)cc(F)c2)[C@@H]3C)ccc1-n1cnc(C)c1` ?
Response line: 0.005

* * *

assay: Drug level in brain of CD rat at 30 mg/kg, po measured after 3 hrs; assay type: ADME, organism-based; settings: read-out: Drug uptake
Readout: concentration at 3 h (µM)
Numbers only, in µM.

- Smiles Code: "COc1cc(/C=C2\\CCCN3C2=NO[C@H](c2cc(F)c(F)c(F)c2)[C@@H]3C)ccc1-n1cnc(C)c1"
  Readout: "concentration at 3 h"
  Numeric Result: 11.1

Quick batch: concentration at 3 h for everything below.
1. COc1cc(C2=CC3=NOC[C@H](c4cc(F)c(F)c(F)c4)N3CCC2)ccc1-n1cnc(C)c1
2. COc1cc(/C=C2\CCCN3C2=NO[C@H](c2cc(F)cc(F)c2)[C@@H]3C)ccc1-n1cnc(C)c1
3. COc1cc(C2=CC3=NO[C@H](c4cc(F)c(F)c(F)c4)CN3CCC2)ccc1-n1cnc(C)c1

Response line:
1. 1.3
2. 7.5
3. 2.1
